- target-system: NADPH oxidase 4 (Homo sapiens) (UniProt Q9NPH5)
- Sequence (Q9NPH5 whole entry, looked up): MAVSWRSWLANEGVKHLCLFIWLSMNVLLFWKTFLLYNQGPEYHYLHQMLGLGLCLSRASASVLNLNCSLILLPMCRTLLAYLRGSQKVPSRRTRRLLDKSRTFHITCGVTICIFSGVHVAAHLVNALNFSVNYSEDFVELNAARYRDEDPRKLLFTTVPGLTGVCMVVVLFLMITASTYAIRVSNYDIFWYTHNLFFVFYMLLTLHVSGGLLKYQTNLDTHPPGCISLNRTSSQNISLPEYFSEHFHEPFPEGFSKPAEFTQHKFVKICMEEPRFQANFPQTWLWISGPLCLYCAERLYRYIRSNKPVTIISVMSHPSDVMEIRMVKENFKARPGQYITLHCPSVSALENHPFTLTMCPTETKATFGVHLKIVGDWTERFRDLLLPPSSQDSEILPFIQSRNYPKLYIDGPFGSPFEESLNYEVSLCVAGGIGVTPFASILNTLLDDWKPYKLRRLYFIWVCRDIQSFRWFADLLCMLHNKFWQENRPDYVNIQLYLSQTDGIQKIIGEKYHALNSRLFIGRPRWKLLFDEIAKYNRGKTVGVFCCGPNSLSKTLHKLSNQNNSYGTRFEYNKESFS
- assay-details: compounds shifting NOX4 Amplex Red fluorescence – cell-based, HEK293-NOX4, tetracycline-induced, NOX inhibitor project, primary screen (AID 1160)
- experimental-conditions: HEK293-NOX4, Amplex Red H2O2 fluorescence, 45 min; higher = more signal, called active from +8 up or from −8 down
recorded-metric: z-score
Write the value as a bare number.

Answered cases to consult:
C=CCC(OC(C)=O)[C@@H]1[C@@H](N(Cc2cccc3ccccc23)C(=O)Cc2ccc(OC)cc2)c2cc(OCCCO)ccc2N1C(=O)c1ccc(-c2ccccc2)cc1 (some centres undefined)    -0.257
CCCC=C(CCC)[C@@H](NP(=O)(c1ccccc1)c1ccccc1)c1ccc(-c2ccccc2)cc1    -1.94
COc1cc2c(cc1O)C(C1CC1)N(Cc1cccc(OC(F)(F)F)c1)CC2 (centres undefined)    -2.98

Read the next record carefully.
Task: Return reported z-score. Input compound: CC(C)C(CO)N1C(=O)[C@@H]2C3C(=O)OCCC/C=C\[C@H]3OC23C=CCN(Cn2nnc4ccccc42)C(=O)[C@@H]13 (some centres undefined)
Output: 0.806

Just for reference, PubChem BioAssay is where these values come from.
